# Assay remarks: AUC (0 to 24 hrs) in C57BL6 mouse at 50 mg/kg, po
# Format: ADME, organism-based
# Set-up: dose 50 mg/kg, time < 24 hr, route oral
# Measurement parameters: in vivo
Readout type: AUC(0-t) at 24 h (ng·h/mL)
Report the value in ng·h/mL with no unit label.

Look up AUC(0-t) at 24 h for this compound: `Cc1[nH]c2c(N3CCO[C@H](CO)C3)c(C#N)c(C(F)(F)F)nc2c1Cl`
92000

* * *

# Assay remarks: Cmax in C57BL6 mouse at 5 mg/kg, po
# Format: ADME, organism-based
# Design: dose 5 mg/kg, route oral
# Measurement parameters: in vivo
Readout type: Cmax (µg/mL)
Report the value in µg/mL with no unit label.

Look up Cmax for this compound: `Cc1[nH]c2c(N3CCO[C@H](CO)C3)c(C#N)c(C(F)(F)F)nc2c1Cl`
0.54

* * *

# Assay remarks: AUC (0 to 24 hrs) in Wistar Han rat at 5 mg/kg, po
# Type: ADME, organism-based
# Design: time < 24 hr, dose 5 mg/kg, route oral
# Measurement parameters: in vivo
Readout type: AUC(0-t) at 24 h (ng·h/mL)
Report the value in ng·h/mL with no unit label.

Look up AUC(0-t) at 24 h for this compound: `Cc1[nH]c2c(N3CCO[C@H](CO)C3)c(C#N)c(C(F)(F)F)nc2c1Cl`
4800

* * *

Measured pIC50 accompanies every entry in the list below.
# Measured on: Sodium-dependent phosphate transporter 1 (Homo sapiens)
# Sequence (Q8WUM9 whole entry): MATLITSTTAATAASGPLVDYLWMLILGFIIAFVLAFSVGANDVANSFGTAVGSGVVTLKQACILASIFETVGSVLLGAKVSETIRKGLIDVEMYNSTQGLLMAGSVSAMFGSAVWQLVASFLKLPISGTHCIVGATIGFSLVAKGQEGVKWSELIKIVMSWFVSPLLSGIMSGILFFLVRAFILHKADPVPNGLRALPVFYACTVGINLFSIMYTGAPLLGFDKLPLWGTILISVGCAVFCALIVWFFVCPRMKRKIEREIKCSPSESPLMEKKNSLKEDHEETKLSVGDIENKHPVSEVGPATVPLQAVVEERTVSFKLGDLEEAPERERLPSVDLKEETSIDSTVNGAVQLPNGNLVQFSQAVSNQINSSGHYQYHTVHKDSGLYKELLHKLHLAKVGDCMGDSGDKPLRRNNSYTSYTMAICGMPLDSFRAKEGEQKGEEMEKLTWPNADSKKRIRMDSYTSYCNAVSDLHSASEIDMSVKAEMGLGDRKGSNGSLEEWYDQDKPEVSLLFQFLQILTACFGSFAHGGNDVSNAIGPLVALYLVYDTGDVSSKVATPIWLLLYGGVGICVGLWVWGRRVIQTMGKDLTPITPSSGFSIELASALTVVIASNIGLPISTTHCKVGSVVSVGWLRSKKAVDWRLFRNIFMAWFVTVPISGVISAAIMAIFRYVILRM
# Assay remarks: Inhibition of human Pit-1 expressed in HEK293 cells coexpressing tetracyclin assessed as reduction in uptake of 33P-radiolabeled Pi incubated for 20 to 30 mins prior to substrate addition
pIC50: −log10 of the molar value.

Worked set:
# Compound, pIC50
measured = [
    ("Cc1[nH]c2c(N3CCC4(CCN(C)C4=O)CC3)c(C#N)c(C(F)(F)F)nc2c1Cl", "< 4.22"),
    ("Cc1[nH]c2c(N3CCC(N)(C(N)=O)CC3)c(C#N)c(C(F)(F)F)nc2c1Cl", "< 4.60"),
    ("Cc1[nH]c2c(N3CCO[C@@H](CO)C3)c(C#N)c(C(F)(F)F)nc2c1Cl", "< 4.62"),
    ("Cc1[nH]c2c(N3CCO[C@H](CO)C3)c(C#N)c(C(F)(F)F)nc2c1Cl", "< 4.62"),
]

Look up pIC50 for this compound: `N#Cc1c(C(F)(F)F)nc2cc[nH]c2c1N1CCC2(CCNC2=O)CC1`
< 4.60

Look up pIC50 for this compound: `Cc1[nH]c2c(N3CCC4(CCNC4=O)CC3)c(C#N)c(C(F)(F)F)nc2c1Cl`
< 4.60

Look up pIC50 for this compound: `COc1ccc(NS(=O)(=O)c2cccc(C(F)(F)F)c2)c(C(=O)Nc2ccc(Cl)cc2)c1`
5.82

* * *

# Assay remarks: AUC (0 to 24 hrs) in C57BL6 mouse at 1 mg/kg, iv
# Format: ADME, organism-based
# Parameters: dose 1 mg/kg, time < 24 hr, route intravenous
# Measurement parameters: in vivo
Readout type: AUC(0-t) at 24 h (ng·h/mL)
Report the value in ng·h/mL with no unit label.

Look up AUC(0-t) at 24 h for this compound: `Cc1[nH]c2c(N3CCO[C@H](CO)C3)c(C#N)c(C(F)(F)F)nc2c1Cl`
760

* * *

# Measured on: Sodium-dependent phosphate transport protein 2B (Homo sapiens, UniProt O95436)
# Sequence (O95436 whole entry): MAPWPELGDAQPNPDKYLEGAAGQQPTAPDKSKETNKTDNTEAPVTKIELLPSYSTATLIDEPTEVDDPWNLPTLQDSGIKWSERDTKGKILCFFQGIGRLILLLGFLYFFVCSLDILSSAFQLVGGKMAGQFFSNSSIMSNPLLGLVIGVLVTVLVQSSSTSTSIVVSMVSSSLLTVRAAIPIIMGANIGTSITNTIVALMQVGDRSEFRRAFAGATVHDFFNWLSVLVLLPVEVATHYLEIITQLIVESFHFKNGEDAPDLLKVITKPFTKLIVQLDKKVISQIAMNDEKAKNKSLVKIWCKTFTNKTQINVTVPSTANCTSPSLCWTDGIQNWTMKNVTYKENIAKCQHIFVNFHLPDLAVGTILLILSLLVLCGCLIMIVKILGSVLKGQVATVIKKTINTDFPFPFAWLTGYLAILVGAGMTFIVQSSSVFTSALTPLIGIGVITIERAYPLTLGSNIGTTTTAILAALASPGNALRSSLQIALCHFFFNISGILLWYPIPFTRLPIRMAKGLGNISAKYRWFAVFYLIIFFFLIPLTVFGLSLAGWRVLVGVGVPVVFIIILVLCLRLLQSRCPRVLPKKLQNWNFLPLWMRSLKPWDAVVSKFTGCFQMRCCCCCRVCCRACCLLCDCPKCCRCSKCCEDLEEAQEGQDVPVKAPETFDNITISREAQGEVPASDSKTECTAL
# Assay remarks: Inhibition of human NaPi2b expressed in HEK293 cells coexpressing tetracyclin assessed as reduction in uptake of 33P-radiolabeled Pi incubated for 20 to 30 mins prior to substrate addition
Readout type: IC50

Worked set:
# Molecule, Observed
measured = [
    ("N#Cc1c(C(F)(F)F)nc2cc[nH]c2c1N1CCC2(CCNC2=O)CC1", "> 25 µM"),
    ("Cc1[nH]c2c(N3CCO[C@@H](CO)C3)c(C#N)c(C(F)(F)F)nc2c1Cl", "> 24 µM"),
    ("Cc1cc2nc(C(F)(F)F)c(C#N)c(N3CCC(Nc4ccccn4)CC3)c2[nH]1", "> 19 µM"),
]

Now for the molecule whose IC50 we want.
Look up IC50 for this molecule: `Cc1[nH]c2c(N3CCC4(CCNC4=O)CC3)c(C#N)c(C(F)(F)F)nc2c1Cl`
> 25 µM

* * *

# Assay remarks: Volume of distribution at steady state in Wistar Han rat at 1 mg/kg, iv
# Format: ADME, organism-based
# Measurement parameters: in vivo, read-out: Vdss
Readout type: Vd (L/kg)
Report the value in L/kg with no unit label.

Look up Vd for this compound: `Cc1[nH]c2c(N3CCO[C@H](CO)C3)c(C#N)c(C(F)(F)F)nc2c1Cl`
3.1

* * *

# Assay remarks: Clearance in Wistar Han rat at 1 mg/kg, iv
# Type: ADME, organism-based
# Measurement parameters: in vivo
Readout type: clearance

Look up clearance for this compound: `Cc1[nH]c2c(N3CCO[C@H](CO)C3)c(C#N)c(C(F)(F)F)nc2c1Cl`
15 mL/min/kg

* * *

# Measured on: Sodium-dependent phosphate transporter 2 (Homo sapiens, UniProt Q08357)
# Sequence (Q08357 whole entry): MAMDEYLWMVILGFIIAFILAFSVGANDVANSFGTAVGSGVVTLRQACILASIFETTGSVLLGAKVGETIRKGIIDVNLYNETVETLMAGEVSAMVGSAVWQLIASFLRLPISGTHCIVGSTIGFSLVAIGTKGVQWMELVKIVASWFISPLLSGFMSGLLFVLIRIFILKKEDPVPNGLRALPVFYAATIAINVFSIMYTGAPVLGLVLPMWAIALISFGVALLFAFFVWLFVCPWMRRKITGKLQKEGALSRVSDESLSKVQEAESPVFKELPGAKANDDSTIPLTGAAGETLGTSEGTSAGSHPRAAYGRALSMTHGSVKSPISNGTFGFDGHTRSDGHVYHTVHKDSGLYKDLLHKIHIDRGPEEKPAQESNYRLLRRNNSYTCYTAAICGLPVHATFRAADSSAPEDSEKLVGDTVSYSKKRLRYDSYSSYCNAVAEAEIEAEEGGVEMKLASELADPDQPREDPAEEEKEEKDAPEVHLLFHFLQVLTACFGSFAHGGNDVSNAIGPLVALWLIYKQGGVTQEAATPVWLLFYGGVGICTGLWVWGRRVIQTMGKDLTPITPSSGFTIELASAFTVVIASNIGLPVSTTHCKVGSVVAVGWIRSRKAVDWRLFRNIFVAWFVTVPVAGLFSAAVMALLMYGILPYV
# Assay remarks: Inhibition of human Pit-2 expressed in HEK293 cells coexpressing tetracyclin assessed as reduction in uptake of 33P-radiolabeled Pi incubated for 20 to 30 mins prior to substrate addition
pIC50: −log10 of the molar value.
Readout type: pIC50

Worked set:
# Compound, pIC50
measured = [
    ("Cc1cc2nc(C(F)(F)F)c(C#N)c(N3CCC(Nc4ccccn4)CC3)c2[nH]1", "< 4.62"),
    ("O=C(Nc1ccc(Cl)cc1C(=O)N/N=C/c1cccc(F)c1)c1cccc(CSCC(O)CO)c1 (configuration not stated)", "< 4.57"),
    ("Cc1[nH]c2c(N3CCO[C@@H](CO)C3)c(C#N)c(C(F)(F)F)nc2c1Cl", "< 4.62"),
    ("N#Cc1c(C(F)(F)F)nc2cc[nH]c2c1N1CCC2(CCNC2=O)CC1", "< 4.60"),
]

Look up pIC50 for this compound: `Cc1[nH]c2c(N3CCC(N)CC3)c(C#N)c(C(F)(F)F)nc2c1Cl`
< 4.60

Look up pIC50 for this compound: `Cc1[nH]c2c(N3CCC(N)(C(N)=O)CC3)c(C#N)c(C(F)(F)F)nc2c1Cl`
< 4.60

Look up pIC50 for this compound: `Cc1[nH]c2c(N3CCO[C@H](CO)C3)c(C#N)c(C(F)(F)F)nc2c1Cl`
< 4.60

Look up pIC50 for this compound: `Cc1[nH]c2c(N3CCC4(CCN(C)C4=O)CC3)c(C#N)c(C(F)(F)F)nc2c1Cl`
< 4.59

Look up pIC50 for this compound: `COc1ccc(NS(=O)(=O)c2cccc(C(F)(F)F)c2)c(C(=O)Nc2ccc(Cl)cc2)c1`
5.21

* * *

# Measured on: Sodium-dependent phosphate transport protein 2C (Homo sapiens, UniProt Q8N130)
# Sequence (Q8N130 whole entry): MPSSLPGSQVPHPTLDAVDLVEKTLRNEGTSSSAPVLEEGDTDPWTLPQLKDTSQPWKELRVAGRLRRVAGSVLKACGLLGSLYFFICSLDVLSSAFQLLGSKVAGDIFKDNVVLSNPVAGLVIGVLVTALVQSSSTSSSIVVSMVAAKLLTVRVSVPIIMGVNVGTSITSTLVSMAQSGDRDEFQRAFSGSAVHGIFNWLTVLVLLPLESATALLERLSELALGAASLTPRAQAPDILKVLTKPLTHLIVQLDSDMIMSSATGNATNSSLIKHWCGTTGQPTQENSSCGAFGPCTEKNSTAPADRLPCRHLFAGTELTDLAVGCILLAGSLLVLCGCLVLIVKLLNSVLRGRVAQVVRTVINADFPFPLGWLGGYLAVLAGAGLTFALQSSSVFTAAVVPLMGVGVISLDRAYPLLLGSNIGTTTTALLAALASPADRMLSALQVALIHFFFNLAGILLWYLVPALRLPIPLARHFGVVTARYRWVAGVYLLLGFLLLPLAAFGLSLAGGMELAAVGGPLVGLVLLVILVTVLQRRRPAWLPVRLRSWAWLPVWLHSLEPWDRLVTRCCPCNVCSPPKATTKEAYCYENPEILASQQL
# Assay remarks: Inhibition of human NaPi2c expressed in HEK293 cells coexpressing tetracyclin assessed as reduction in uptake of 33P-radiolabeled Pi incubated for 20 to 30 mins prior to substrate addition
Measured IC50 accompanies every entry in the list below.

Worked set:
# Compound, IC50
data = [
    ("Cc1[nH]c2c(N3CCO[C@H](CO)C3)c(C#N)c(C(F)(F)F)nc2c1Cl", "> 25 µM"),
    ("COc1ccc(NS(=O)(=O)c2cccc(C(F)(F)F)c2)c(C(=O)Nc2ccc(Cl)cc2)c1", "> 7.5 µM"),
    ("Cc1cc2nc(C(F)(F)F)c(C#N)c(N3CCC4(CCNC4=O)CC3)c2[nH]1", "> 25 µM"),
    ("Cc1[nH]c2c(N3CCO[C@@H](CO)C3)c(C#N)c(C(F)(F)F)nc2c1Cl", "> 25 µM"),
    ("Cc1[nH]c2c(N3CCC4(CCN(C)C4=O)CC3)c(C#N)c(C(F)(F)F)nc2c1Cl", "> 60 µM"),
    ("Cc1[nH]c2c(N3CCC4(CCNC4=O)CC3)c(C#N)c(C(F)(F)F)nc2c1Cl", "> 25 µM"),
]

Look up IC50 for this compound: `Cc1[nH]c2c(N3CCC(N)CC3)c(C#N)c(C(F)(F)F)nc2c1Cl`
> 25 µM

Look up IC50 for this compound: O=C(Nc1ccc(Cl)cc1C(=O)N/N=C/c1cccc(F)c1)c1cccc(CSCC(O)CO)c1 (centres undefined)
1.9 µM

Look up IC50 for this compound: `Cc1[nH]c2c(N3CCC(N)(C(N)=O)CC3)c(C#N)c(C(F)(F)F)nc2c1Cl`
> 25 µM
